Values from ChEMBL document CHEMBL5528049

Consider the following molecules; for each one, report its bioavailability.
testDescription: Oral bioavailability in Sprague-Dawley rat at 3 mg/kg administered as cassette dose and measured upto 24 hrs by LC-MS/MS analysis
Assay type: ADME, organism-based
recordedConditions: in vivo

Please report the recorded bioavailability for "CNCc1ccc(-n2cc(-c3nc(NC4CCN(S(C)(=O)=O)CC4)ncc3C#N)cn2)c(Cl)c1" .
69%

Proceed to "CC(C)(O)Cn1cc(-c2nc(NC3CCN(S(=O)(=O)C4CC4)CC3)ncc2C(F)(F)F)cn1"
51%

Proceed to "Cn1cnc(S(=O)(=O)N2CCC(Nc3ncc(C(F)(F)F)c(-c4cnn(CC(F)(F)F)c4)n3)CC2)c1"
48%
